B1: tRNA (parent)
chain: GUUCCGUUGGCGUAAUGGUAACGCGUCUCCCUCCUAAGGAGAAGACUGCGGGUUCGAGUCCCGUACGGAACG

Variants of: B1
test-details: yeast fitness relative to wild type (ratio to wild type); higher = fitter; tRNA-Arg(CCU), competitive growth, 37 C, YPD
Fewer inactive variants are shown than the library holds.
measured-parameter: yeast fitness

>>> assay_value("GUUCCGUUGGCGUAAUGGUAACGCGUCUCCCUCUUAAGGAGAAGACCGCGGGUUAGAGUCCCGUACGGAUCG")
0.562
>>> assay_value("GUUCCGUUGGCGUAAUGGUAGCGCGUCUCUCUCCUAAGGAGAAGACUGCGGGUUCGAGUCCCGUACAGAACG")
0.633
>>> assay_value("GUUCCGUUGACGUAAUGGUAACGCGUCUCCCUCCAAAGGAGAAGACUGCGGGUUCAAGUCCCGUACGGAACG")
0.617
>>> assay_value("GUUCCGUUGGCGUAAUGGUAACGCGUCUCCCUCCUAAGGAGAAGACUGCGGGUUCGAGUCCCAUACGGAUCG")
0.816
>>> assay_value("GUUCCGUUGGCGUAUUGGUAACGCGUCUCCCUCCUAAGGAGAAGACUGCGGGUUCGAGCCCCGUACGGAACG")
0.788
>>> assay_value("GUUCCGUUAGCGUAAUGGUAACGCGUCUCCCUCCUAAGGAGAAAAUUGCGGGUUCGAGUCCCGUACGGCACG")
0.787
>>> assay_value("GUUCCGUUGGCGUAAUGAUAACGCGUCUCCCUCCUAAGGAGAAGACUGCGGGUUCGAGACCCGUACGGAACG")
0.76
>>> assay_value("GUUGCGUUGGCGUAAUGGUAACGCGUCUCCCUCCUAAAGAGAAGACUGCGGGUUCGAGUCCCGUACGGAACG")
0.692
>>> assay_value("GUUCCGUUGGCGUAAUGGUAAGGCGUCUCCCCCCUAAGGAGAAGACUGCGGGUUCGAGUCCCGUACAGAACG")
0.564
>>> assay_value("GUCCCGUUGGCGUAAUGGUAACGCGUCUCCCUCCUAAGGAAAAGACUGCGGGUUCGAGUCCCGUCCGGAACG")
0.51
>>> assay_value("GUUCCGUUGGCGUAAUGGUAACGCGUCUCCUUCCUAAGGAGAAGACUGCGGGUUCGAGUCCUAUACGGAACG")
0.617
